biological target: Glutamate receptor ionotropic AMPA (Homo sapiens, UniProt P42261+P42262+P42263+P48058); assay: Positive allosteric modulation at AMPAR in HEK293 cells expressing GluA2Q assessed as glutamate induced calcium influx
readoutLabel: EC50 (µM)

{"compound": "CC1N(C)c2ccc(F)cc2S(=O)(=O)N1C (centres undefined)", "measuredValue": 15.1}

[I] O=S1(=O)c2cc(F)ccc2N(C2CC2)CN1C(F)F
[II] O=S1(=O)NCN(C2CC2)c2ccc(F)cc21
[III] CN1CN(C2CC2)c2ccc(F)cc2S1(=O)=O
Task field, ranking: reported EC50, descending order. List each label, following the requested order.
III, I, II
(III: 57.5 µM, I: 16.6 µM, II: 0.275 µM)

====

biological target: Glutamate receptor ionotropic, AMPA (Rattus norvegicus) (UniProt P19491+P19492+P19493+P19490); experiment: Positive allosteric modulation at AMPAR in rat primary cortical cells assessed as concentration required for 2 fold increase in AMPA induced current amplitude by FDSS fluorescence assay; format: cell-based; settings: Primary cortical neuron, filed as positive allosteric modulator
readoutLabel: EC (µM)

Below are worked cases with known answers.
{"molecule": "O=S1(=O)c2cc(Cl)ccc2N(C2CC2)CN1CF", "units": "µM", "measuredValue": 1.5}
{"molecule": "O=S1(=O)NCN(C2CC2)c2ccc(Cl)cc21", "units": "µM", "measuredValue": 0.7}
{"molecule": "O=S1(=O)NCN(C2CC2)c2ccc(F)cc21", "units": "µM", "measuredValue": 0.3}
{"molecule": "CCN1c2ccc(F)cc2S(=O)(=O)N(C)C1C (stereo not drawn)", "units": "µM", "measuredValue": 1.4}
{"molecule": "O=S1(=O)c2cc(Cl)ccc2N(C2CC2)CN1C(F)F", "units": "µM", "measuredValue": 6}

[P] CCN1c2ccc(Cl)cc2S(=O)(=O)N(CC)C1C (stereo not drawn)
[Q] CC1N(C)c2ccc(Cl)cc2S(=O)(=O)N1C (stereo not drawn)
Between these two entries, P and Q , state which has the higher EC. Kindly state the label of the option you pick.
P
(P: 12.2 µM, Q: 0.8 µM)

====

target: Glutamate receptor ionotropic AMPA (Homo sapiens, UniProt P42261+P42262+P42263+P48058); assay: Positive allosteric modulation at AMPAR in HEK293 cells expressing GluA2Q assessed as glutamate induced calcium influx
pEC50: −log10 of the molar value.
readoutLabel: pEC50

{"molecule": "CC1N(C)c2ccc(Cl)cc2S(=O)(=O)N1C (stereo not drawn)", "testSystem": "Glutamate receptor ionotropic AMPA (Homo sapiens, UniProt P42261+P42262+P42263+P48058)", "measuredValue": 4.09}
{"molecule": "CCN1c2ccc(F)cc2S(=O)(=O)N(C)C1C (stereo not drawn)", "testSystem": "Glutamate receptor ionotropic AMPA (Homo sapiens, UniProt P42261+P42262+P42263+P48058)", "measuredValue": 5.06}
{"molecule": "O=S1(=O)c2cc(Cl)ccc2N(C2CC2)CN1CF", "testSystem": "Glutamate receptor ionotropic AMPA (Homo sapiens, UniProt P42261+P42262+P42263+P48058)", "measuredValue": 5.66}
{"molecule": "O=S1(=O)NCN(C2CC2)c2ccc(Cl)cc21", "testSystem": "Glutamate receptor ionotropic AMPA (Homo sapiens, UniProt P42261+P42262+P42263+P48058)", "measuredValue": 6.10}
{"molecule": "O=S1(=O)c2cc(F)ccc2N(C2CC2)CN1CF", "testSystem": "Glutamate receptor ionotropic AMPA (Homo sapiens, UniProt P42261+P42262+P42263+P48058)", "measuredValue": 6.55}

[1] CCN1c2ccc(Cl)cc2S(=O)(=O)N(C)C1C (stereo not drawn)
[2] CC1N(C2CC2)c2ccc(Cl)cc2S(=O)(=O)N1CF (stereo not drawn)
Short answer wanted: higher pEC50, 1 or 2 ? Kindly state the label of the option you pick.
2
